These data points were gathered from the supplement of paper PMC11061612.

tested on: GI-ME-N (Neuroblastoma); assay: Bliss excess, mean over the matrix (fraction); higher = more synergy
property_name: Bliss excess
Simply state the number, no unit and no words.

CC1(C)CCC(CN2CCN(c3ccc(C(=O)NS(=O)(=O)c4ccc(NCC5CCOCC5)c([N+](=O)[O-])c4)c(Oc4cnc5[nH]ccc5c4)c3)CC2)=C(c2ccc(Cl)cc2)C1 [Venetoclax] + C=CCn1c(=O)c2cnc(Nc3ccc(N4CCN(C)CC4)cc3)nc2n1-c1cccc(C(C)(C)O)n1 [AZD1775] (first compound max 1 µM, partner max 1 µM): -0.0689

Could you now consider this next compound?
Ask: Need Bliss excess of NC1(C(=O)N[C@@H](CCO)c2ccc(Cl)cc2)CCN(c2ncnc3[nH]ccc23)CC1 [Capivasertib] + CC(=O)c1c(C)c2cnc(Nc3ccc(N4CCNCC4)cn3)nc2n(C2CCCC2)c1=O [Palbociclib] (first compound max 10 µM, 7x7, partner max 10 µM) , thanks.
Result: -0.0823

---

Below, each of the compounds is paired with its reported combination Emax value.
system: NCI-H1693 (Lung Adenocarcinoma); assay: combination Emax (second highest fraction inhibited in the dose matrix, 72 h); higher = more inhibition; extreme values may be limits of the assay
Enter a number only.

Examples with answers:
Cc1cc2ncnn2cc1Nc1ncc2c(n1)n(C1CCOCC1)c(=O)n2C [AZD7648] + C[C@@H]1COCCN1C2=NC(=NC(=C2)C3(CC3)[S@](=N)(=O)C)C4=C5C=CNC5=NC=C4 [AZD6738] (first compound max 10 µM, 7x7, partner max 10 µM): 0.294
CC1(C)CCC(CN2CCN(c3ccc(C(=O)NS(=O)(=O)c4ccc(NCC5CCOCC5)c([N+](=O)[O-])c4)c(Oc4cnc5[nH]ccc5c4)c3)CC2)=C(c2ccc(Cl)cc2)C1 [Venetoclax] + CCN(CCO)CCCOc1ccc2c(Nc3cc(CC(=O)Nc4cccc(F)c4)[nH]n3)ncnc2c1 [AZD2811] (first compound max 1 µM, 7x7, partner max 1 µM): 0.182
Cc1c2c(nn1C)CSCc1cc(n(C)n1)CSc1cc(c3ccccc3c1)OCCCc1c(C(=O)O)n(C)c3c-2c(Cl)ccc13 [AZD5991] + Cn1cnc2c(F)c(Nc3ccc(Br)cc3Cl)c(C(=O)NOCCO)cc21 [Selumetinib] (first compound max 1 µM, 7x7, partner max 3 µM): 0.319

Ask: Checklist item: combination Emax tested on NCI-H1693 (Lung Adenocarcinoma), entry NC1(C(=O)N[C@@H](CCO)c2ccc(Cl)cc2)CCN(c2ncnc3[nH]ccc23)CC1 [Capivasertib] + CCN(CCO)CCCOc1ccc2c(Nc3cc(CC(=O)Nc4cccc(F)c4)[nH]n3)ncnc2c1 [AZD2811] (first compound max 10 µM, 7x7, partner max 1 µM) , value?
Result: 0.36

---

system: COR-L311 (Small Cell Lung Carcinoma); experiment: Bliss excess, mean over the matrix (fraction); higher = more synergy
# reported Bliss excess; entries follow

CC(=O)c1c(C)c2cnc(Nc3ccc(N4CCNCC4)cn3)nc2n(C2CCCC2)c1=O [Palbociclib] + Cn1cnc2c(F)c(Nc3ccc(Br)cc3Cl)c(C(=O)NOCCO)cc21 [Selumetinib] (first compound max 10 µM, 7x7, partner max 10 µM): -0.0334

Consider the additional compound presented here.
Ask: Return reported Bliss excess; argument: COc1cccc2c1C(=O)c1c(O)c3c(c(O)c1C2=O)C[C@@](O)(C(=O)CO)C[C@@H]3O[C@H]1C[C@H](N)[C@H](O)[C@H](C)O1 [Doxorubicin] + Cc1cc2ncnn2cc1Nc1ncc2c(n1)n(C1CCOCC1)c(=O)n2C [AZD7648] (first compound max 1 µM, 7x7, partner max 10 µM)
Result: 0.0893

---

system: Hs-445 (Non-Cancerous); experiment: combination Emax (second highest fraction inhibited in the dose matrix, 72 h); higher = more inhibition; extreme values may be limits of the assay
property_name: combination Emax

Example entries and their recorded answers appear below.
NC1(C(=O)N[C@@H](CCO)c2ccc(Cl)cc2)CCN(c2ncnc3[nH]ccc23)CC1 [Capivasertib] + CC(=O)c1c(C)c2cnc(Nc3ccc(N4CCNCC4)cn3)nc2n(C2CCCC2)c1=O [Palbociclib] (first compound max 10 µM, 7x7, partner max 10 µM): 0.613
CC(=O)c1c(C)c2cnc(Nc3ccc(N4CCNCC4)cn3)nc2n(C2CCCC2)c1=O [Palbociclib] + CC1(C)CCC(CN2CCN(c3ccc(C(=O)NS(=O)(=O)c4ccc(NCC5CCOCC5)c([N+](=O)[O-])c4)c(Oc4cnc5[nH]ccc5c4)c3)CC2)=C(c2ccc(Cl)cc2)C1 [Venetoclax] (first compound max 10 µM, 7x7, partner max 1 µM): 0.746

Ask: Which measured combination Emax value corresponds to CN(C)CCCOc1ccc(-c2ccc3ncc4c(c3c2)n(C2CCOCC2)c(=O)n4C)cn1 [AZD0156] + CCN(CCO)CCCOc1ccc2c(Nc3cc(CC(=O)Nc4cccc(F)c4)[nH]n3)ncnc2c1 [AZD2811] (first compound max 1 µM, 7x7, partner max 1 µM) ?
Result: 0.325

---

Bliss excess values by entry
test system: HCC1954 (Breast Carcinoma); experiment: Bliss excess, mean over the matrix (fraction); higher = more synergy

Some entries whose results are on file:
CN(C)CCCOc1ccc(-c2ccc3ncc4c(c3c2)n(C2CCOCC2)c(=O)n4C)cn1 [AZD0156] + C=CCn1c(=O)c2cnc(Nc3ccc(N4CCN(C)CC4)cc3)nc2n1-c1cccc(C(C)(C)O)n1 [AZD1775] (first compound max 1 µM, partner max 1 µM): -0.034
CN(CCO)CC[C@H](CSc1ccccc1)Nc1ccc(S(=O)(=O)NC(=O)c2ccc(N3CCC([C@@H](O)c4ccccc4-c4ccc(Cl)cc4)CC3)cc2)cc1S(=O)(=O)C(F)(F)F [AZD4320] + C=CCn1c(=O)c2cnc(Nc3ccc(N4CCN(C)CC4)cc3)nc2n1-c1cccc(C(C)(C)O)n1 [AZD1775] (first compound max 1 µM, partner max 1 µM): 0.0823

Ask: Identify the measured Bliss excess of Cc1cc2ncnn2cc1Nc1ncc2c(n1)n(C1CCOCC1)c(=O)n2C [AZD7648] + O=C(c1cc(Cc2n[nH]c(=O)c3ccccc23)ccc1F)N1CCN(C(=O)C2CC2)CC1 [Olaparib] (first compound max 10 µM, 7x7, partner max 10 µM) for HCC1954 (Breast Carcinoma).
Result: -0.045

---

test system: GI-ME-N (Neuroblastoma); experiment: combination Emax (second highest fraction inhibited in the dose matrix, 72 h); higher = more inhibition; extreme values may be limits of the assay
Class key for combination Emax values: lower: < 0.2; middle: ≥ 0.2 and < 0.5; upper: ≥ 0.5

Ask: Which category fits this record: NC1(C(=O)N[C@@H](CCO)c2ccc(Cl)cc2)CCN(c2ncnc3[nH]ccc23)CC1 [Capivasertib] + COc1nnc2ccc(N3CCC(c4ccc(OCCN5CCN(C)C(=O)[C@H]5C)cc4)CC3)nn12 [AZD5153] (first compound max 10 µM, 7x7, partner max 1 µM)
Result: middle

Ask: Can you check COc1cc2ncnc(Nc3ccc(F)c(Cl)c3)c2cc1OCCCN1CCOCC1 [Gefitinib] + CC(C)n1c(=O)n(C)c2cnc3cc(F)c(-c4ccc(OCCCN5CCCCC5)nc4)cc3c21 [AZD1390] (first compound max 10 µM, 7x7, partner max 0.3 µM) next?
Result: lower

Ask: Consider next the compound COc1nnc2ccc(N3CCC(c4ccc(OCCN5CCN(C)C(=O)[C@H]5C)cc4)CC3)nn12 [AZD5153] + Cn1cnc2c(F)c(Nc3ccc(Br)cc3Cl)c(C(=O)NOCCO)cc21 [Selumetinib] (first compound max 1 µM, 7x7, partner max 10 µM) in the same way.
Result: middle

---

system: LN-405 (Glioblastoma); experiment: combination Emax (second highest fraction inhibited in the dose matrix, 72 h); higher = more inhibition; extreme values may be limits of the assay
The entries below are paired with their reported combination Emax.

COc1nnc2ccc(N3CCC(c4ccc(OCCN5CCN(C)C(=O)[C@H]5C)cc4)CC3)nn12 [AZD5153] + Cn1cnc2c(F)c(Nc3ccc(Br)cc3Cl)c(C(=O)NOCCO)cc21 [Selumetinib] (first compound max 1 µM, 7x7, partner max 10 µM): 0.332

Next molecule, combination Emax to be filled in.
Ask: Give combination Emax (LN-405 (Glioblastoma)) of the following molecule: C[C@@H](c1ccc2nccn2c1)n1nnc2ncc(-c3cnn(C)c3)nc21 [Savolitinib] + CC1(C)CCC(CN2CCN(c3ccc(C(=O)NS(=O)(=O)c4ccc(NCC5CCOCC5)c([N+](=O)[O-])c4)c(Oc4cnc5[nH]ccc5c4)c3)CC2)=C(c2ccc(Cl)cc2)C1 [Venetoclax] (first compound max 1 µM, 7x7, partner max 1 µM)
Result: 0.173

---

tested on: NCI-H1581 (Non-Small Cell Lung Carcinoma); assay: combination Emax (second highest fraction inhibited in the dose matrix, 72 h); higher = more inhibition; extreme values may be limits of the assay
property_name: combination Emax
Reply with the value as a number alone.

CN(CCO)CC[C@H](CSc1ccccc1)Nc1ccc(S(=O)(=O)NC(=O)c2ccc(N3CCC([C@@H](O)c4ccccc4-c4ccc(Cl)cc4)CC3)cc2)cc1S(=O)(=O)C(F)(F)F [AZD4320] + Cn1cnc2c(F)c(Nc3ccc(Br)cc3Cl)c(C(=O)NOCCO)cc21 [Selumetinib] (first compound max 1 µM, 7x7, partner max 3 µM): 0.4
N#Cc1cnc(Nc2cc(NC[C@H]3CNCCO3)c(C(F)(F)F)cn2)cn1 [SRA737] + CCc1c2c(nc3ccc(O)cc13)-c1cc3c(c(=O)n1C2)COC(=O)[C@]3(O)CC [SN-38] (first compound max 10 µM, 7x7, partner max 0.3 µM): 0.86
N#Cc1cnc(Nc2cc(NC[C@H]3CNCCO3)c(C(F)(F)F)cn2)cn1 [SRA737] + O=c1[nH]cc(F)c(=O)[nH]1 [5-Fluorouracil] (first compound max 10 µM, 7x7, partner max 20 µM): 0.411

The record that follows has no combination Emax shown yet.
Ask: Which combination Emax is listed for NC1(C(=O)N[C@@H](CCO)c2ccc(Cl)cc2)CCN(c2ncnc3[nH]ccc23)CC1 [Capivasertib] + Cn1cnc2c(F)c(Nc3ccc(Br)cc3Cl)c(C(=O)NOCCO)cc21 [Selumetinib] (first compound max 10 µM, 7x7, partner max 10 µM) ?
Result: 0.513
